Consider the following compounds and their measured log10(IC50) readings.
- experimentalTarget: full length human RORγt (Homo sapiens)
- Construct: full length human RORγt together in COS-7 cells
- Sequence (P51449 1-497 isoform P51449-2): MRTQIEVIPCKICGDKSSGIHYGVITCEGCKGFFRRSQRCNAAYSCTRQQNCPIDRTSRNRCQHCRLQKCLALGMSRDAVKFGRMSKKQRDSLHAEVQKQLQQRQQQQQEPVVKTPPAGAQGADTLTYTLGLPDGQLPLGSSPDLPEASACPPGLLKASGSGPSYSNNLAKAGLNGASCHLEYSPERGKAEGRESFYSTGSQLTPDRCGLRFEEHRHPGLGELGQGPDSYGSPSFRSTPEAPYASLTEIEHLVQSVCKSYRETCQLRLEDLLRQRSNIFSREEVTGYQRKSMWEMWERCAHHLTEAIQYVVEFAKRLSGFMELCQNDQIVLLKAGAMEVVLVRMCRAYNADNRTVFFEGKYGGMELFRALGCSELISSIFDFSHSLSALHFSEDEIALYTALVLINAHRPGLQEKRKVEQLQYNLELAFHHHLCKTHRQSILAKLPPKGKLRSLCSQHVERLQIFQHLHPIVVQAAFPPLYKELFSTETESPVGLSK
- method: 5×RORE based luciferase assay
- runParameters: COS-7 cells transfected with 5×RORE-Luc and hRORγt, 18-20 h treatment
Values are log10 of IC50 in nM.

Known results for compounds:
>>> recordednumber("CCS(=O)(=O)c1ccc(CC(=O)Nc2cc(Cl)c(C3(c4noc(C5CC(F)(F)C5)n4)CC3)c(Cl)c2)cc1")
0.40
>>> recordednumber("CCS(=O)(=O)c1ccc(CC(=O)Nc2cc(Cl)c(C3(c4noc(-c5ccc(Cl)c(Cl)c5)n4)CC3)c(Cl)c2)nc1")
1.02
>>> recordednumber("CCS(=O)(=O)c1ccc(CC(=O)Nc2cc(Cl)c(C3(c4noc(-c5ccc(F)cc5Cl)n4)CC3)c(Cl)c2)cc1")
0.95
>>> recordednumber("CCS(=O)(=O)c1ccc(CC(=O)Nc2cc(Cl)c(C3(c4noc(-c5ccc(F)c(F)c5)n4)CC3)c(Cl)c2)nc1")
1.01

Moving on to another compound below.
Challenge: Lab note: need log10(IC50) for CCS(=O)(=O)c1ccc(CC(=O)Nc2cc(Cl)c(C3(c4noc(-c5ccc(C)cc5)n4)CC3)c(Cl)c2)cc1 on full length human RORγt (Homo sapiens), anyone have it?
Response given: 0.16
